- System: Porcine Atria myofibrils
- MEASUREMENT_DESCRIPTION: Myofibril ATPase assay (PK/LDH NADH-coupled), atria myofibrils
- Assay type: biochemical
- EXPERIMENTAL_CONTEXT: Table 8
READOUT_KIND: Porcine Atria IC25 (µM)
Reply with just the number (in µM).

As a guide, the following entries are already answered.
                                   molecule       experimental_system  observed_measurement
0  C[C@H](NC(=O)CN1Cc2c(ccc(F)c2F)NC1=O)c1ccc2cnccc2n1 [Compound B275]  Porcine Atria myofibrils                  8.27
1  Cc1ccnnc1C(C)NC(=O)CN1Cc2c(ccc(F)c2F)NC1=O (single isomer, unassigned) [Compound B25]  Porcine Atria myofibrils                  0.70
2  Cc1nnc(C(C)NC(=O)CN2Cc3c(ccc(F)c3F)NC2=O)o1 (stereo not drawn) [Compound B345]  Porcine Atria myofibrils                 57.06
3  N#Cc1ccc2c(c1)C1(CC1)N(CC(=O)N[C@H]1COc3cc(F)cc(F)c31)C(=O)N2 [Compound B122]  Porcine Atria myofibrils                  1.31
4  C[C@@H](NC(=O)CN1Cc2cc(F)ccc2NC1=O)c1ccc(C#N)cc1F [Compound B205]  Porcine Atria myofibrils                  2.07

Turning now to a further record.
**Query** Which Porcine Atria IC25 value is on record for C[C@H](NC(=O)CN1Cc2c(ccc(F)c2F)NC1=O)c1cc2ccccc2cn1 [Compound B285] ?
**Result** 100.00

Entry source: patent US12509431B2
